# Study system: canine CD3 on canine T cells (canine PBMC) (canine, UniProt P27597 22-202)
# Sequence (P27597 22-202 limits assumed, chain 1 of 3): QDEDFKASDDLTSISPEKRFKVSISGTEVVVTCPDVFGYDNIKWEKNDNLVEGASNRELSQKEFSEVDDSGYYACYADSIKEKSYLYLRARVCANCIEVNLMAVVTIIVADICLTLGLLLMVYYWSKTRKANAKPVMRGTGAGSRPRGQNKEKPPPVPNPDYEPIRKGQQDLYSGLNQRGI
# Sequence (chain, as listed by the source limits assumed, chain 2 of 3): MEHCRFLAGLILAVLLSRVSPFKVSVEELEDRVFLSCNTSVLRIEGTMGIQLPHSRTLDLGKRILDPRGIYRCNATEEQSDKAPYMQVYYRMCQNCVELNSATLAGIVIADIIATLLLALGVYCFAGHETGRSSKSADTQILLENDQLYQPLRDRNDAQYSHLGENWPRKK
# Sequence (chain, as listed by the source limits assumed, chain 3 of 3): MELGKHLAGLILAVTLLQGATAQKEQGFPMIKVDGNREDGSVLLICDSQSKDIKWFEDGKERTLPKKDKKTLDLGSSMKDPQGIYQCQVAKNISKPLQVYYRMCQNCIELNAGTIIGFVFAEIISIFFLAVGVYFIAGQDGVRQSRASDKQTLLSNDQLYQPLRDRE
# Assay notes: cell-based or functional assay

>  <Binder>
PMX193 (monospecific anti-canine CD3, canine IgG-B effector function deficient Fc) (antibody, V domains shown) VH: EVQLVESGGDLVKPGGSLRLSCVASGFTFSTYHMSWVRQAPGKGLQWVAYISSGGSRTNYADAVKGRFTISRDNAKNTLYLQMNSLRAEDAAVFYCARHYGSSLFDYWGQGTLVTVSS VL: DIVMTQTPLSLSVSPGEPASISCKASQSLLHINGNTYLYWFRQKPGQSPQRLIYKVSNRDPGVPDRFSGSGSGTDFTLRISRVEADDAGVYYCGQGIQDPTFGKGTHLEIK

>  <CD25 Activation, Day 9, PB>
16.1

$$$$
>  <Binder>
PMX181 (monospecific anti-canine CD3, canine IgG-B effector function deficient Fc) (antibody, V domains shown) VH: ELTLQESGPGLVKPSQTLSLTCIVSGGSVTNNYYWTWIRQRPGRGLEWMGYWTGFTNYNPAFQGRISIIANTAKKQLSLQLSSLTTEDTAVYYCARRAIPTYFDYWGQGTLVTVSS VL: SYVLTQLPSKNVTLKQPAHITCGGDNIGSRSVHWYQQKLGQAPVLIIYYDSSRPTGIPERFSGANSGNTATLTISGALAEDEADYYCQVWDSSASVFGGGTHLTVL

>  <CD25 Activation, Day 9, PB>
23.9

$$$$
>  <Binder>
PMX180 (monospecific anti-canine CD3, canine IgG-B effector function deficient Fc) (antibody, V domains shown) VH: ELTLQESGPGLVKPSQTLSLTCVVSGGSVTSNYYWNWIRQRPGRGLEWMGYWTGSTNYNPAFQGRISITADTAKKQFSLQLRSMTIEDTAVYYCARRGIPIFFDYWGQGTLVTVSS VL: SYVLTQLPSKNVTLKQPAHITCGGDNIGSKSVHWYQQKLGQAPVLIIYYDSSRPTGIPERFSGANSGNTATLTISGALAEDEADYYCQVWDSSASVFGGGTHLTVL

>  <CD25 Activation, Day 9, PB>
17

$$$$
>  <Binder>
PMX157 (monospecific anti-canine CD3, canine IgG-B effector function deficient Fc) (antibody, V domains shown) VH: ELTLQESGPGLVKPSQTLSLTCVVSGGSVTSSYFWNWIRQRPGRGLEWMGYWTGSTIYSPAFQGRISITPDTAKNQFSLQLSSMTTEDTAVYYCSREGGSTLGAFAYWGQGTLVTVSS VL: SYVLTQLPSKNVTLKQPAHITCGGDKIGSKSVHWYQQKLGQAPVLIIYYDSSRPTGIPERFSGANSGNTATLTISGALAEDEADYYCQVWDSSAKASVFGGGTHLTVL

>  <CD25 Activation, Day 9, PB>
8.72

$$$$
